Exercise: for every item that follows, state its recorded pIC50.
Test system: 697
assay_overview: Cytotoxicity against human 697 cells after 48 hrs by CellTiter 96 aqueous one solution assay
Format: cell-based
run_parameters: Homo sapiens, 697, 48 h
Keep it numeric: pIC50 is minus log10 of the concentration in mol/L.

The recorded pIC50 for `CN1CCc2c(c3ccccc3n2Cc2ccc(C(=O)NO)cc2)C1` is 5.70

get_value(item= `CCN(CC)Cc1ccc2cc(COC(=O)Nc3ccc(C(=O)NO)cc3)ccc2c1` , readout=pIC50) returns 7.00

----------
assay_overview: Stability in human plasma assessed as parent compound remaining at 100 uM after 4 hrs by LC-MS/MS analysis
Type: ADME, cell-free
run_parameters: read-out: Stability
Exercise: state measured remaining at 4 h, 100 µM for each of the molecules provided.
I only need the number, in %, no unit after it.

remaining at 4 h, 100 µM for `Cn1c(Sc2c(F)cc(C(=O)NO)cc2F)nnc1-c1ncccc1F` is 97

Lab note: measured remaining at 4 h, 100 µM of `Nc1ccc(-c2nnn(Cc3c(F)cc(C(=O)NO)cc3F)n2)cc1` was 88

Per the records, this molecule ( `Cn1c(Sc2c(F)cc(C(=O)NO)cc2F)nnc1-c1cccc(CN2CCCCCC2)c1` ) has remaining at 4 h, 100 µM equal to 91

The recorded remaining at 4 h, 100 µM for entry `O=C(NO)c1cnc(NC2(c3ccccc3)CC2)nc1` equals 100

Briefly, remaining at 4 h, 100 µM measured for `Cn1c(Sc2c(F)cc(C(=O)NO)cc2F)nnc1-c1cccs1` : 99

// field: remaining at 4 h, 100 µM; key: `O=C(NO)c1ccc(Cn2nnnc2-c2cccs2)cc1` ; value = 91

The molecule listed as `O=C(NO)c1cc(F)c(Cn2nnc(-c3ccccn3)n2)c(F)c1` has a reported remaining at 4 h, 100 µM of 96

# remaining at 4 h, 100 µM (molecule: O=C(CCCCCCNC(=O)c1cnc(N(c2ccccc2)c2ccccc2)nc1)NO [RICOLINOSTAT] ) is 100

Value of remaining at 4 h, 100 µM reported for the molecule `O=C(NO)c1cc(F)c(Cn2nnc(-c3ccco3)n2)c(F)c1` is 100

Per the records, this molecule ( `COc1ccc(CC(=O)N[C@@H](Cc2cscn2)C(=O)Nc2ccc(C(=O)NO)cc2)cc1OC` ) has remaining at 4 h, 100 µM equal to 100

Given item `Cc1cc(-c2nnc(Sc3c(F)cc(C(=O)NO)cc3F)n2C)nn1C` , the value recorded as its remaining at 4 h, 100 µM is 92

Entry CCN(CC)Cc1ccc2cc(COC(=O)Nc3ccc(C(=O)NO)cc3)ccc2c1 [GIVINOSTAT] — recorded remaining at 4 h, 100 µM = 97

Recorded remaining at 4 h, 100 µM (molecule `Cn1c(Sc2c(F)cc(C(=O)NO)cc2F)nnc1-c1cccnn1` ): 100

Briefly, remaining at 4 h, 100 µM measured for `O=C(NO)c1ccc(Cn2nnc(-c3ncccn3)n2)cc1` : 76

response.value for `Cn1c(Sc2c(F)cc(C(=O)NO)cc2F)nnc1-c1ccc(CN2CCCCC2)cc1` (field: remaining at 4 h, 100 µM) = 90

Record `Cn1c(Sc2ccc(C(=O)NO)cc2)nnc1-c1cccs1` . Reported remaining at 4 h, 100 µM: 100
